tested on: HEK-293T; assay: Multiplex assay against HEK293T; format: toxicity, cell-based; conditions: human, 48 h, 10 µM, compound concentration 10 uM, replicate 2
Measured Endpoint: Population Membrane Permeable-Phenotype (%)
// note: answer is a bare numeric in %

- Molecule: "CCCCCCNC(=O)Nc1ccc(S(=O)(=O)Nc2ccc(CCNC[C@H](O)COc3ccc(O)cc3)cc2)cc1"
  Quantitative Readout: 0
- Molecule: "O=C(Nc1cc(-c2ccccc2)nn1-c1ccccc1F)c1ccc([N+](=O)[O-])cc1"
  Quantitative Readout: 1
- Molecule: "Cc1ccc(OCC(O)C(C)NC(C)C)c2c1CCC2.Cl (stereo not given)"
  Quantitative Readout: 1
- Molecule: "Cc1cc(O)c(-c2ccc([C@@H](C)CN(C)C)cc2)c2c1[nH]c(=O)c1sccc12"
  Quantitative Readout: 0

Item: `COC(c1ccccc1)(c1ccccc1)[C@H](Oc1nc(C)cc(C)n1)C(=O)O` | Population Membrane Permeable-Phenotype (%): 0

---

test system: HEK-293T; test: Multiplex assay against HEK293T; assay type: toxicity, cell-based; conditions: human, 12 h, 10 µM, compound concentration 10 uM, replicate 1
Non-standard residues stand in square brackets, D forms with d. Residues, ends and D or L forms follow the SMILES beside them.
Measured Endpoint: Population Healthy Nuclei (%)
Number only, in %; omit the unit.

Examples with answers:
- Compound: "COc1cc2nc(N3CCN(C(=O)c4ccco4)CC3)nc(N)c2cc1OC.Cl [PRAZOSIN HYDROCHLORIDE]"
  Measured Endpoint: "Population Healthy Nuclei (%)"
  Quantitative Readout: 75
- Compound: "N[C@](CC1c2ccccc2Oc2ccccc21)(C(=O)O)[C@H]1C[C@@H]1C(=O)O"
  Measured Endpoint: "Population Healthy Nuclei (%)"
  Quantitative Readout: 78
- Compound: "Nc1nc(CC(=O)Nc2ccc(CCNC[C@H](O)c3ccccc3)cc2)cs1"
  Measured Endpoint: "Population Healthy Nuclei (%)"
  Quantitative Readout: 77
- Compound: "C[C@H](NC(=O)CNC(=O)c1cccc(Cl)c1)c1ccccc1"
  Measured Endpoint: "Population Healthy Nuclei (%)"
  Quantitative Readout: 76
- Compound: "Cc1cc(=O)n(C)c2cc(N3C(=O)CC[C@H](NS(=O)(=O)CC(C)C)[C@H]3c3ccc(Cl)cc3)ccc12"
  Measured Endpoint: "Population Healthy Nuclei (%)"
  Quantitative Readout: 70
- Compound: "Cn1cc(C(=O)OCC2CCN(CCNS(C)(=O)=O)CC2)c2ccccc21"
  Measured Endpoint: "Population Healthy Nuclei (%)"
  Quantitative Readout: 73

Field Population Healthy Nuclei (%) (entry `COc1ccc2[nH]c(I)c(CCNC(C)=O)c2c1` ) reads 77

For record `S=C(NCCCc1c[nH]cn1)NCCCN(Cc1ccc(Cl)c(Cl)c1)c1ccc(Br)cn1` the listed Population Healthy Nuclei (%) is 57

What the record says about CN1C[C@H](C(=O)N[C@]2(C)O[C@@]3(O)[C@@H]4CCCN4C(=O)[C@H](Cc4ccccc4)N3C2=O)C[C@@H]2c3cccc4[nH]cc(c34)C[C@H]21.CS(=O)(=O)O [DIHYDROERGOTAMINE MESYLATE] : Population Healthy Nuclei (%) is 76

Entry `O=c1ccc2ccc(OCCCCN3CCN(c4cccc5sccc45)CC3)cc2[nH]1` — recorded Population Healthy Nuclei (%) = 43

// Population Healthy Nuclei (%) lookup, compound = `COc1cc2nc(N3CCN(C(=O)COc4c(OC)cccc4C(C)C)CC3)nc(N)c2cc1OC.Cl.Cl` , result: 69

Cl.Cl.OCCOCCN1CCN(C(c2ccccc2)c2ccc(Cl)cc2)CC1 (stereo not drawn) [HYDROXYZINE HYDROCHLORIDE] has a reported Population Healthy Nuclei (%) of 71

Form field Population Healthy Nuclei (%), entry `CSc1nc(NC2CCCC2)c([N+](=O)[O-])c(NC2CCCC2)n1` : 81

For this compound ( `COc1cc(C(=O)N2CC[C@@H](O)[C@@H](N)C2)cc2nc(-c3cc4ccccc4n3CC3CC3)n(C)c12.Cl` ), measured Population Healthy Nuclei (%) is 66

Population Healthy Nuclei (%) for `Cc1cc(-c2ccc3c(c2)CC[C@H]3N2CC3(CCN(C(=O)Cc4cn5cc(C)sc5n4)CC3)C2)ncn1` is 75

Note to self: Population Healthy Nuclei (%) recorded for `CCCCCCNC(=O)Nc1ccc(S(=O)(=O)Nc2ccc(CCNC[C@H](O)COc3ccc(O)cc3)cc2)cc1` was 74

Population Healthy Nuclei (%) measured on CC(C)C[C@@H]1NC(=O)[C@@H](C(C)C)NC(=O)[C@@H]2CCCN2C(=O)[C@@H](CC(=O)O)NC(=O)[C@@H](Cc2c[nH]c3ccccc23)NC1=O [BQ-123] (cyclo(L[dW][dD]P[dV])) = 78

Recorded result, O=C(O)CCC/C=C\CC1C(O)CC(O)C1/C=C/C(O)COc1cccc(Cl)c1 (stereo not drawn) , Population Healthy Nuclei (%): 77

`CCCCC[C@H](O)/C=C/[C@H]1[C@H](O)CC(=O)[C@@H]1CCCCCCC(=O)O` has a reported Population Healthy Nuclei (%) of 78

What the record says about CN1CCN2c3ccccc3Cc3ccccc3C2C1.Cl (stereo not drawn) [MIANSERIN HYDROCHLORIDE] : Population Healthy Nuclei (%) is 81

Reported Population Healthy Nuclei (%) ( CCn1c(-c2nc3cc(C(=O)N4CCCC(N)C4)ccc3n2C)cc2ccccc21.Cl (stereo not drawn) ) = 74

// field: Population Healthy Nuclei (%); key: `CN1CCC(C(=O)c2cccc(NC(=O)c3c(F)cc(F)cc3F)n2)CC1` ; value = 80

GET /value?item= `COc1ccc2c(c1OCc1ccccc1)C[C@@H](C(=O)O)N(C(=O)C(c1ccccc1)c1ccccc1)C2` &field=Population Healthy Nuclei (%) returns 81

Just so you know, measured Population Healthy Nuclei (%) for `CN(C)C(=O)Cn1cc(-c2ccc(-c3nnc4ccccn34)cc2)cn1` came out at 76

Record `O=C(Nc1cc(-c2ccccc2)nn1-c1ccccc1F)c1ccc([N+](=O)[O-])cc1` . Reported Population Healthy Nuclei (%): 71

---

Entries and their Population Mitotic Cells (%) values follow.
test system: HEK-293T; assay: Multiplex assay against HEK293T; format: toxicity, cell-based; conditions: human, 48 h, 10 µM, compound concentration 10 uM, replicate 1
Please state the figure in %; there is no need to write the unit.

- Compound: "S=C(NCCCc1c[nH]cn1)NCCCN(Cc1ccc(Cl)c(Cl)c1)c1ccc(Br)cn1"
  Population Mitotic Cells (%): 15
- Compound: "CC(C)C[C@H](CO)Nc1nc(S[C@@H](C)c2ccccc2)nc2nc(N)sc12"
  Population Mitotic Cells (%): 39
- Compound: "O=C(O)CCC/C=C\\CC1C(O)CC(O)C1/C=C/C(O)COc1cccc(Cl)c1 (stereo unspecified)"
  Population Mitotic Cells (%): 66
- Compound: "C[C@H](NC(=O)CNC(=O)c1cccc(Cl)c1)c1ccccc1"
  Population Mitotic Cells (%): 55

The value of Population Mitotic Cells (%) measured for the compound `COc1c(Nc2ccc(S(C)(=O)=O)nc2C)ncnc1OC1CCN(C(=O)OC(C)C)CC1` turned out to be 64

Population Mitotic Cells (%) reading for `CCCCCCNC(=O)Nc1ccc(S(=O)(=O)Nc2ccc(CCNC[C@H](O)COc3ccc(O)cc3)cc2)cc1` : 53

---

tested on: Fibroblast; experiment: Multiplex assay against human fibroblast; format: toxicity, cell-based; conditions: 24 h, 10 µM, compound concentration 10 uM, replicate 1
Recorded Population Healthy Nuclei (%) by entry
# answer = value followed by unit

Completed entries (count: 4):
- Molecule: "CN1C[C@H](C(=O)N[C@]2(C)O[C@@]3(O)[C@@H]4CCCN4C(=O)[C@H](Cc4ccccc4)N3C2=O)C[C@@H]2c3cccc4[nH]cc(c34)C[C@H]21.CS(=O)(=O)O [DIHYDROERGOTAMINE MESYLATE]"
  Tested Target: "Fibroblast"
  Result: "72%"
- Molecule: "Cc1cc(-c2ccc3c(c2)CC[C@H]3N2CC3(CCN(C(=O)Cc4cn5cc(C)sc5n4)CC3)C2)ncn1"
  Tested Target: "Fibroblast"
  Result: "64%"
- Molecule: "CCCCCCNC(=O)Nc1ccc(S(=O)(=O)Nc2ccc(CCNC[C@H](O)COc3ccc(O)cc3)cc2)cc1"
  Tested Target: "Fibroblast"
  Result: "70%"
- Molecule: "O=c1ccc2ccc(OCCCCN3CCN(c4cccc5sccc45)CC3)cc2[nH]1"
  Tested Target: "Fibroblast"
  Result: "54%"

Measured on Fibroblast, Cl.Cl.OCCOCCN1CCN(C(c2ccccc2)c2ccc(Cl)cc2)CC1 (configuration not stated) [HYDROXYZINE HYDROCHLORIDE] has a documented Population Healthy Nuclei (%) of 62%

Reported Population Healthy Nuclei (%) (Fibroblast) for entry `C=CCN1C[C@H](C(=O)N(CCCN(C)C)C(=O)NCC)C[C@@H]2c3cccc4[nH]cc(c34)C[C@H]21` is 65%

Per the reported Fibroblast data, `CN(C)C(=O)Cn1cc(-c2ccc(-c3nnc4ccccn34)cc2)cn1` has Population Healthy Nuclei (%) of 65%
